biological target: hGPR38R (Homo sapiens, UniProt O43193); experiment: GPR38 FLIPR functional agonist assay; assay type: cell-based; parameters: expressed in transfected cells; conditions: pEC50 in the FLIPR assay, HEK-293 cells stably expressing the GPR38 receptor; agonist response, Fluo-4 fluorescence
Sequence (O43193 whole entry): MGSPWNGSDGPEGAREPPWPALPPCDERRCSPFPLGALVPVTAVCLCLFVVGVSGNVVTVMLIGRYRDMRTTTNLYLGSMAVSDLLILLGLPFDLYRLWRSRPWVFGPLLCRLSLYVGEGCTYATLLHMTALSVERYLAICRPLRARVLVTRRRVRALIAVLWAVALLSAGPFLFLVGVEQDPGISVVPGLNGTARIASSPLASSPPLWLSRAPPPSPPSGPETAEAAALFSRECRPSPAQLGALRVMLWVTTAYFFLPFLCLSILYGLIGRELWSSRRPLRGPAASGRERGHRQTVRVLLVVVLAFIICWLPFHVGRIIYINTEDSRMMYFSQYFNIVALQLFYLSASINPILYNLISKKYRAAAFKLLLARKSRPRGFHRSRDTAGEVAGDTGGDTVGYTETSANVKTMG
pEC50: −log10 of the molar value.
property.label: pEC50

INSERT INTO results (compound_string, subject_of_test, reported_measurement) VALUES
  ('C[C@@H]1CN(Cc2ccc(-c3cccnc3C(=O)N3CCC(Nc4ccccc4F)CC3)cc2)C[C@H](C)N1', 'hGPR38R (Homo sapiens, UniProt O43193)', '> 6.00'),
  ('C[C@@H]1CN(Cc2ccc(-n3ccnc3C(=O)N3CCC(Nc4cccc(F)c4)CC3)cc2)C[C@H](C)N1', 'hGPR38R (Homo sapiens, UniProt O43193)', '> 6.50'),
  ('C[C@@H]1CN(Cc2ccc(-c3cccnc3C(=O)N3CCC(Nc4ccc(F)cc4)CC3)cc2F)C[C@H](C)N1', 'hGPR38R (Homo sapiens, UniProt O43193)', '> 6.50');

Now turn to the next molecule.
Could you share what pEC50 was measured for `C[C@@H]1CN(Cc2ccc(-c3cccnc3C(=O)N3CCC(Nc4cccc(F)c4)CC3)cc2F)C[C@H](C)N1` , tested on hGPR38R (Homo sapiens, UniProt O43193)? > 6.50
